molecular target: Procathepsin L (Homo sapiens, UniProt P07711); experiment: Irreversible inhibition of human Cathepsin L assessed as Kinact using Cbz-Phe-Arg-AMC as fluorogenic substrate by fluorometric assay
Sequence (P07711 114-333 limits assumed): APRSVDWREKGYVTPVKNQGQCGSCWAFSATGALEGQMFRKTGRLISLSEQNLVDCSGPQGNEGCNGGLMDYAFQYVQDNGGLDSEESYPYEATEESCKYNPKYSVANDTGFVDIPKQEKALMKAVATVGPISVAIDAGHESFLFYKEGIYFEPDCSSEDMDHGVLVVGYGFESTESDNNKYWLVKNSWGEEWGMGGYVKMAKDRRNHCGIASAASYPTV
Listed compounds paired with reported Kinact
Kindly answer with a numeric value in s⁻¹, unit omitted.

O=C(NCc1ccccc1C(=O)N[C@H](/C=C/S(=O)(=O)Oc1ccccc1)CCc1ccccc1)c1ccc2c(c1)OCCO2 | 0.0104
O=C(NCc1ccccc1C(=O)N[C@H](/C=C/S(=O)(=O)Oc1ccccc1)CCc1ccccc1)c1cc(F)cc(F)c1 | 0.0022
O=C(NCc1ccccc1C(=O)N[C@H](/C=C/S(=O)(=O)c1ccccc1)CCc1ccccc1)c1cc(F)cc(F)c1 | 0.0045

Could you now look at the following compound, please?
Form field Kinact, entry O=C(NCc1ccccc1C(=O)N[C@H](/C=C/S(=O)(=O)c1ccccc1)CCc1ccccc1)c1ccncc1 : 0.0026

###

Ki by entry:
molecular target: Rhodesain (Trypanosoma brucei rhodesiense); assay: Irreversible inhibition of Trypanosoma brucei rhodesiense rhodesain assessed as inhibition constant using Cbz-Phe-Arg-AMC as fluorogenic substrate by fluorometric assay
Form field: result (number plus unit)

Solved entries:
O=C(NCc1ccccc1C(=O)N[C@H](/C=C(\F)S(=O)(=O)Oc1ccccc1)CCc1ccccc1)c1ccc2c(c1)OCCO2 | 379 nM
CNC(=O)Cc1ccccc1C(=O)N[C@H](/C=C/S(=O)(=O)c1ccccc1)CCc1ccccc1 | 470 nM
O=C(NCc1ccccc1C(=O)N[C@H](/C=C(\F)S(=O)(=O)Cc1ccccc1)CCc1ccccc1)c1cc(F)cc(F)c1 | 608 nM

Continue with the molecule presented below.
Reported Ki of O=C(NCc1ccccc1C(=O)N[C@H](/C=C/S(=O)(=O)Oc1ccccc1)CCc1ccccc1)c1ccc2c(c1)OCCO2 : 10 nM

###

biological target: Rhodesain (Trypanosoma brucei rhodesiense) (UniProt Q95PM0); test: Irreversible inhibition of Trypanosoma brucei rhodesiense rhodesain assessed as no recovery of enzyme activity preincubated for 30 mins followed by substrate addition using Cbz-Phe-Arg-AMC as fluorogenic substrate by fluorometric 100-fold dilution assay
Calls of active or inactive are those of the source. The rule behind the calls is not given here.
property-measured: inhibition

Consider the reported inhibition for these compounds:
O=C(NCc1ccccc1C(=O)N[C@H](/C=C/S(=O)(=O)Oc1ccccc1)CCc1ccccc1)c1ccc2c(c1)OCCO2 | Active
O=C(NCc1ccccc1C(=O)N[C@H](/C=C(\F)S(=O)(=O)c1ccccc1)CCc1ccccc1)c1ccc2c(c1)OCCO2 | Active
O=C(NCc1ccccc1C(=O)N[C@H](/C=C(\F)S(=O)(=O)Cc1ccccc1)CCc1ccccc1)c1ccc2c(c1)OCCO2 | Active
CN1CCN(C(=O)N[C@@H](Cc2ccccc2)C(=O)N[C@H](/C=C/S(=O)(=O)c2ccccc2)CCc2ccccc2)CC1 | Active

Per the records, this compound ( O=C(NCc1ccccc1C(=O)N[C@H](/C=C(\F)S(=O)(=O)Oc1ccccc1)CCc1ccccc1)c1ccc2c(c1)OCCO2 ) has inhibition equal to Active

###

Reported Second-order inactivation rate constant (kinact/Ki) values follow for various compounds
biological target: Rhodesain (Trypanosoma brucei rhodesiense) (UniProt Q95PM0); assay: Irreversible inhibition of Trypanosoma brucei rhodesiense rhodesain assessed as second order rate constant using Cbz-Phe-Arg-AMC as fluorogenic substrate by fluorometric assay

The examples below pair each entry with its known result.
O=C(NCc1ccccc1C(=O)N[C@H](/C=C/S(=O)(=O)Cc1ccccc1)CCc1ccccc1)c1ccc2c(c1)OCCO2 | 0.64 10^5/M/s
O=C(NCc1ccccc1C(=O)N[C@H](/C=C/S(=O)(=O)Cc1ccccc1)CCc1ccccc1)c1ccccc1 | 0.24 10^5/M/s

Query O=C(NCc1ccccc1C(=O)N[C@H](/C=C/S(=O)(=O)c1ccccc1)CCc1ccccc1)c1ccc2c(c1)OCCO2 yields Second-order inactivation rate constant (kinact/Ki) of 0.01 10^5/M/s

###

target: Rhodesain (Trypanosoma brucei rhodesiense, UniProt Q95PM0); assay: Irreversible inhibition of Trypanosoma brucei rhodesiense rhodesain assessed as inhibition constant using Cbz-Phe-Arg-AMC as fluorogenic substrate by fluorometric assay
Sequence (Q95PM0 whole entry): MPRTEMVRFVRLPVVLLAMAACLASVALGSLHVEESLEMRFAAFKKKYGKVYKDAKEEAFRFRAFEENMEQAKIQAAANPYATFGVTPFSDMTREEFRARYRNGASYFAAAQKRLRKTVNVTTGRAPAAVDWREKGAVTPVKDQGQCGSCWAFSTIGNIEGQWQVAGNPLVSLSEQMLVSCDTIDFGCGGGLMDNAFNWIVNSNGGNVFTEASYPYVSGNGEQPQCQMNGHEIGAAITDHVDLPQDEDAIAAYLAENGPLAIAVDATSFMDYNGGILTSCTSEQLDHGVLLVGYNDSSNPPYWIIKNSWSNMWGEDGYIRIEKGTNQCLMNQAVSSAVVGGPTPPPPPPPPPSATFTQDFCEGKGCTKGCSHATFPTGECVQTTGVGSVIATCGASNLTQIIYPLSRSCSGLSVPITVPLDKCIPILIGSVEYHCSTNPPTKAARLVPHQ
pKi: −log10 of the molar value.
Think of 6 as a floor: if pKi stands on it or above, it is TRUE; beneath it, FALSE.

input: Reported pKi reaches at least 6 for O=C(O)c1ccc(C(=O)NCc2ccccc2C(=O)N[C@H](/C=C/S(=O)(=O)c2ccccc2)CCc2ccccc2)cc1 ?
output: FALSE

input: API: above_or_equal(metric=pKi, cutoff=6) for item O=C(NCc1ccccc1C(=O)N[C@H](/C=C(\F)S(=O)(=O)c1ccccc1)CCc1ccccc1)c1ccccc1
output: TRUE

input: Exam item: decide whether the reported pKi for O=C(NCc1ccccc1C(=O)N[C@H](/C=C/S(=O)(=O)Cc1ccccc1)CCc1ccccc1)c1ccc2c(c1)OCCO2 is at least 6.
output: TRUE

input: Hi, just wondering whether O=C(NCc1ccccc1C(=O)N[C@H](/C=C/S(=O)(=O)Oc1ccccc1)CCc1ccccc1)c1cc(F)cc(F)c1 shows pKi of 6 or higher.
output: TRUE

input: Determine whether this compound has pKi no lower than 6: O=C(NCc1ccccc1C(=O)N[C@H](/C=C/S(=O)(=O)Cc1ccccc1)CCc1ccccc1)c1ccncc1
output: TRUE

input: Check if pKi >= 6 (inclusive). Item: O=C(NCc1ccccc1C(=O)N[C@H](/C=C(\F)S(=O)(=O)c1ccccc1)CCc1ccccc1)c1ccncc1
output: TRUE

input: Is it the case that O=C(NCc1ccccc1C(=O)N[C@H](/C=C/S(=O)(=O)c1ccccc1)CCc1ccccc1)c1cccc(O)c1 has pKi reaching or exceeding 6?
output: TRUE

input: Hi team, for O=C(NCc1ccccc1C(=O)N[C@H](/C=C(\F)S(=O)(=O)Cc1ccccc1)CCc1ccccc1)c1ccc2c(c1)OCCO2 , is the recorded pKi at or above 6?
output: TRUE

input: Quick check: does O=C(NCc1ccccc1C(=O)N[C@H](/C=C/S(=O)(=O)c1ccccc1)CCc1ccccc1)c1cc(F)cc(F)c1 have pKi greater than or equal to 6?
output: TRUE

###

List of inhibition values.
molecular target: Genome polyprotein (dengue virus type 2) (UniProt P29990); assay: Inhibition of Dengue virus NS2B-NS3 protease at 11 uM using Boc-Gly-Arg-Arg-AMC as fluorogenic substrate by fluorometric assay
Write down the numeric answer in % and omit the unit.

Below, each entry is followed by its recorded inhibition result.
O=C(NCc1ccccc1C(=O)N[C@H](/C=C/S(=O)(=O)Oc1ccccc1)CCc1ccccc1)c1ccncc1 | 26
O=C(NCc1ccccc1C(=O)N[C@H](/C=C/S(=O)(=O)Oc1ccccc1)CCc1ccccc1)c1cc(F)cc(F)c1 | 35
O=C(NCc1ccccc1C(=O)N[C@H](/C=C/S(=O)(=O)c1ccccc1)CCc1ccccc1)c1cc(F)cc(F)c1 | 11

Next up:
Form: molecule = O=C(NCc1ccccc1C(=O)N[C@H](/C=C/S(=O)(=O)Oc1ccccc1)CCc1ccccc1)c1ccc2c(c1)OCCO2 ; inhibition = 31

###

Each entry below carries its reported log10 Kinact.
target: Rhodesain (Trypanosoma brucei rhodesiense); test: Irreversible inhibition of Trypanosoma brucei rhodesiense rhodesain assessed as Kinact using Cbz-Phe-Arg-AMC as fluorogenic substrate by fluorometric assay
Reminder: these figures are log10 of reported Kinact, in s⁻¹ before transformation.

Entry O=C(NCc1ccccc1C(=O)N[C@H](/C=C/S(=O)(=O)Cc1ccccc1)CCc1ccccc1)c1ccccc1 — recorded log10 Kinact = -2.02

###

target: Rhodesain (Trypanosoma brucei rhodesiense, UniProt Q95PM0); assay: Irreversible inhibition of Trypanosoma brucei rhodesiense rhodesain assessed as inhibition constant using Cbz-Phe-Arg-AMC as fluorogenic substrate by fluorometric assay
pKi: −log10 of the molar value.
Tag: true (1) if measured pKi is not below 7, false (0) if it is.

O=C(O)c1cccc(C(=O)NCc2ccccc2C(=O)N[C@H](/C=C/S(=O)(=O)c2ccccc2)CCc2ccccc2)c1 | false (0)

input: Does the reported pKi for CN1CCN(C(=O)NCc2ccccc2C(=O)N[C@H](/C=C/S(=O)(=O)Cc2ccccc2)CCc2ccccc2)CC1 fall at or above the 7 mark?
output: false (0)

input: Determine whether this compound has pKi no lower than 7: O=C(NCc1ccccc1C(=O)N[C@H](/C=C/S(=O)(=O)Oc1ccccc1)CCc1ccccc1)c1ccncc1
output: true (1)

input: Given the entry O=C(NCc1ccccc1C(=O)N[C@H](/C=C(\F)S(=O)(=O)c1ccccc1)CCc1ccccc1)c1cc(F)cc(F)c1 , answer whether its pKi meets or surpasses 7.
output: false (0)

input: Does O=C(NCc1ccccc1C(=O)N[C@H](/C=C(\F)S(=O)(=O)c1ccccc1)CCc1ccccc1)c1ccc2c(c1)OCCO2 have a reported pKi of at least 7?
output: false (0)

input: # bool: pKi of O=C(Cc1ccccc1C(=O)N[C@H](/C=C/S(=O)(=O)c1ccccc1)CCc1ccccc1)Nc1ccc(C(=O)O)cc1 >= 7
output: false (0)

###

Items are presented alongside their recorded inhibition.
target: 20S proteasome (Homo sapiens) (UniProt P49721+P20618+P28074+P28062+P28065+P28072+P25786+P25787+P25788+P25789+P28066+P60900+O14818+Q8TAA3+P40306+A5LHX3+P49720+P28070+Q99436); assay: Inhibition of human 20S proteasome caspase-like activity at 11 uM using Cbz-Leu-Leu-Glu-AMC as fluorogenic substrate by fluorometric assay; assay type: protein-complex assay
Numeric only. Scale: %

Please review the entries below; each comes with its answer.
O=C(NCc1ccccc1C(=O)N[C@H](/C=C/S(=O)(=O)Oc1ccccc1)CCc1ccccc1)c1ccncc1 | 41
O=C(NCc1ccccc1C(=O)N[C@H](/C=C/S(=O)(=O)Oc1ccccc1)CCc1ccccc1)c1cc(F)cc(F)c1 | 33
O=C(NCc1ccccc1C(=O)N[C@H](/C=C(\F)S(=O)(=O)c1ccccc1)CCc1ccccc1)c1ccc2c(c1)OCCO2 | 34
O=C(NCc1ccccc1C(=O)N[C@H](/C=C/S(=O)(=O)c1ccccc1)CCc1ccccc1)c1cc(F)cc(F)c1 | 24
O=C(NCc1ccccc1C(=O)N[C@H](/C=C(\F)S(=O)(=O)c1ccccc1)CCc1ccccc1)c1ccccc1 | 25
O=C(NCc1ccccc1C(=O)N[C@H](/C=C/S(=O)(=O)c1ccccc1)CCc1ccccc1)c1ccccc1 | 39

In the following, a different compound is considered.
Lookup result for O=C(NCc1ccccc1C(=O)N[C@H](/C=C/S(=O)(=O)Oc1ccccc1)CCc1ccccc1)c1ccc2c(c1)OCCO2 ; measured inhibition: 43
